EXPERIMENTAL_TARGET: HLA-A*0201 (human)
MEASUREMENT_NOTES: competition with 125I-labeled probe peptide for purified HLA, gel filtration
CONDITION_INFO: remark: other sources report otherwise
MEASURED_ENDPOINT: IC50 (nM)
One number for each entry, in nM.

Item under review: GTPEGDLVYV [Peptide 1418.29] . Reported IC50? 313

Origin of values: patent US20040037843A1
